All figures here come from PubChem BioAssay AID1199.

test system: mouse carcinogenicity bioassay, TD50 from CPDB; assay: DSSTox (CPDBAS) Carcinogenic Potency Database Summary Mouse Bioassay Results; settings: TD50_Mouse_Note: TD50 is harmonic mean of more than one positive test; TargetSites_Mouse_Female: stomach
QUANTITY KIND: Potency

These recorded examples may help you get a feel for the data.
MOLECULE	RESULT
O=NN1CCN(N=O)CC1	0.025 mmol/kg/day
NC(=O)CCCCn1ccc(NC(N)=NCC(F)(F)F)n1	1.84 mmol/kg/day
COP(=O)(OC)OC=C(Cl)Cl	0.319 mmol/kg/day

Incoming: Return reported Potency. Input molecule: O=Cc1ccccc1
Outgoing: 14 mmol/kg/day

Incoming: Return reported Potency. Input molecule: O=C1CCO1
Outgoing: 0.0172 mmol/kg/day

Incoming: Return reported Potency. Input molecule: CC(C)=CCl
Outgoing: 0.165 mmol/kg/day

---

system: mouse carcinogenicity bioassay, TD50 from CPDB; test: DSSTox (CPDBAS) Carcinogenic Potency Database Summary Mouse Bioassay Results; settings: TD50_Mouse_Note: TD50 is harmonic mean of more than one positive test; TargetSites_Mouse_Female: lung; mammary gland; vascular system
QUANTITY KIND: Potency

STRUCTURE SMILES	Potency
C=CCl	0.349 mmol/kg/day

Incoming: Return reported Potency. Input molecule: C=C(Cl)Cl
Outgoing: 0.357 mmol/kg/day

---

Below, each entry is listed with its recorded Potency.
test system: mouse carcinogenicity bioassay, TD50 from CPDB; assay: DSSTox (CPDBAS) Carcinogenic Potency Database Summary Mouse Bioassay Results; conditions: TD50_Mouse_Note: TD50 is harmonic mean of more than one positive test; TargetSites_Mouse_Female: mammary gland

STRUCTURE SMILES	RESULT
C=C(Cl)CSC(=S)N(CC)CC	0.189 mmol/kg/day
COC(=O)[C@H]1[C@H]2C[C@@H]3c4[nH]c5cc(OC)ccc5c4CCN3C[C@H]2C[C@@H](OC(=O)c2cc(OC)c(OC)c(OC)c2)[C@@H]1OC	0.00825 mmol/kg/day
C[C@H]([C@H](O)CCC(C)(C)O)[C@H]1CC[C@@]2(O)C3=CC(=O)[C@@H]4C[C@@H](O)[C@@H](O)C[C@]4(C)[C@H]3CC[C@]12C	7.7e-05 mmol/kg/day

Read the next record carefully.
Incoming: Return reported Potency. Input molecule: COC1=CC(=O)C[C@@H](C)[C@]12Oc1c(Cl)c(OC)cc(OC)c1C2=O
Outgoing: 0.0391 mmol/kg/day

---

Below, each entry is listed with its recorded Potency.
system: mouse carcinogenicity bioassay, TD50 from CPDB; experiment: DSSTox (CPDBAS) Carcinogenic Potency Database Summary Mouse Bioassay Results; settings: TD50_Mouse_Note: TD50 is harmonic mean of more than one positive test; TargetSites_Mouse_Female: vascular system

MOLECULE	Potency
Cc1ccc2c(c1[N+](=O)[O-])C(=O)c1ccccc1C2=O	0.00584 mmol/kg/day
O=[N+]([O-])c1ccc(Cl)cc1	3 mmol/kg/day
COc1cc2c(c3oc4cccc(O)c4c(=O)c13)C1C=COC1O2 (centres undefined)	0.0028 mmol/kg/day

Read the next record carefully.
Incoming: Return reported Potency. Input molecule: CC(=O)NNc1ccccc1
Outgoing: 0.341 mmol/kg/day

---

system: mouse carcinogenicity bioassay, TD50 from CPDB; experiment: DSSTox (CPDBAS) Carcinogenic Potency Database Summary Mouse Bioassay Results; conditions: TD50_Mouse_Note: TD50 is harmonic mean of more than one positive test; greater than ten-fold variation among TD50 values for positive res; TargetSites_Mouse_Female: liver; lung; TargetSites_Mouse_BothSexes: mammary gland
QUANTITY KIND: Potency

Incoming: Return reported Potency. Input molecule: NNC(=O)c1ccncc1
Outgoing: 0.198 mmol/kg/day
